- Test system: SUM185PE
- Method: GRmax, 72 h; higher = less effect
Quantity Name: GRmax, 72 h (GR)
Response body: numeric value in GR, unit text excluded.

Recorded results for 3 molecules are shown here.
molecule="CC(C)NC[C@@H](C(=O)N1CCN(c2ncnc3c2[C@H](C)C[C@H]3O)CC1)c1ccc(Cl)cc1 [Ipatasertib/GDC0068] (max 10 µM)" quantity_name="GRmax, 72 h" numeric_readout=0.455
molecule="Cc1cc(C(C)Nc2ccccc2)c2nc(N3CCOCC3)cc(=O)n2c1 (configuration not stated) [TGX221] (max 10 µM)" quantity_name="GRmax, 72 h" numeric_readout=0.509
molecule="CNCc1ccc(-c2[nH]c3cc(F)cc4c3c2CCNC4=O)cc1 [Rucaparib] (max 10 µM)" quantity_name="GRmax, 72 h" numeric_readout=0.772

Consider now this further molecule.
For the molecule CCCCOc1c(C(=O)c2c(F)cc(C)cc2F)c[nH]c2nncc1-2 (max 10 µM) , report GRmax, 72 h.
0.905

====

- Test system: HCC1419
- Method: GRmax, 72 h; higher = less effect
Entry flag: criterion met if GRmax, 72 h reaches 0.4 GR; criterion not met if it does not.

// known answers, use as guide
molecule="CN(C)C(=O)c1cc2cnc(Nc3ccc(N4CCNCC4)cn3)nc2n1C1CCCC1 [LEE011/Ribociclib] (max 10 µM)" system_tested=HCC1419 class_assignment="criterion met"
molecule="CN(C)C/C=C/C(=O)Nc1ccc(C(=O)Nc2cccc(Nc3cc(-c4c[nH]c5ccccc45)ncn3)c2)cc1 [THZ-P1-2] (max 10 µM)" system_tested=HCC1419 class_assignment="criterion not met"

Check the entry Nc1cc(C(F)(F)F)c(-c2cc(N3CCOCC3)nc(N3CCOCC3)n2)cn1 [Buparlisib/NVP-BKM120] (max 10 µM) : does GRmax, 72 h equal or exceed 0.4 GR?
criterion not met

Check the entry Cc1nc(Nc2ncc(C(=O)Nc3c(C)cccc3Cl)s2)cc(N2CCN(CCO)CC2)n1 [Dasatinib] (max 10 µM) : does GRmax, 72 h equal or exceed 0.4 GR?
criterion not met

Check the entry CCOc1cc2ncc(C#N)c(Nc3ccc(OCc4ccccn4)c(Cl)c3)c2cc1NC(=O)/C=C/CN(C)C [Neratinib/HKI272] (max 3.162 µM) : does GRmax, 72 h equal or exceed 0.4 GR?
criterion not met

Check the entry COc1cc2nccc(Oc3ccc(NC(=O)C4(C(=O)Nc5ccc(F)cc5)CC4)cc3)c2cc1OC [Cabozantinib] (max 10 µM) : does GRmax, 72 h equal or exceed 0.4 GR?
criterion met

====

- Tested on: MDAMB361
- Method: GRmax, 72 h; higher = less effect
Quantity Name: GRmax, 72 h (GR)
Response body: numeric value in GR, unit text excluded.

Recorded results for 6 compounds are shown here.
compound="O=C1NC(=NCc2cccs2)SC1=Cc1ccc2ncccc2c1 [R0-3306] (max 10 µM)" numeric_readout=0.111
compound="CCCCOc1c(C(=O)c2c(F)cc(C)cc2F)c[nH]c2nncc1-2 (max 10 µM)" numeric_readout=0.216
compound="Cc1cc(C(C)Nc2ccccc2)c2nc(N3CCOCC3)cc(=O)n2c1 (configuration not stated) [TGX221] (max 10 µM)" numeric_readout=0.799
compound="C=CCn1c(=O)c2cnc(Nc3ccc(N4CCN(C)CC4)cc3)nc2n1-c1cccc(C(C)(C)O)n1 [AZD1775] (max 10 µM)" numeric_readout=-0.348
compound=COc1ccc2c(c1)[C@]1(C[C@H]1c1ccc3c(/C=C/c4ccc(CN5C[C@@H](C)O[C@@H](C)C5)cc4)n[nH]c3c1)C(=O)N2 numeric_readout=0.272
compound="CN1CCN(C(=O)c2ccc3cc(CCNc4ncnc5ccc(C#N)cc45)ccc3c2)CC1 [senexin b] (max 10 µM)" numeric_readout=0.271

For the compound COc1cc([C@@H]2c3cc4c(cc3[C@@H](O[C@@H]3O[C@@H]5CO[C@@H](C)O[C@H]5[C@H](O)[C@H]3O)[C@H]3COC(=O)[C@H]23)OCO4)cc(OC)c1O [Etoposide] (max 10 µM) , report GRmax, 72 h.
-0.517

====

- System: ZR751
- Method: GRmax, 72 h; higher = less effect
Quantity Name: GRmax, 72 h

compound="C[C@@H]1COCCN1c1cc(C2([S@](C)(=N)=O)CC2)nc(-c2cc[nH]c3nccc2-3)n1 [AZD6738] (max 10 µM)" quantity_name="GRmax, 72 h" result="0.598 GR"
compound=COc1ccc2c(c1)[C@]1(C[C@H]1c1ccc3c(/C=C/c4ccc(CN5C[C@@H](C)O[C@@H](C)C5)cc4)n[nH]c3c1)C(=O)N2 quantity_name="GRmax, 72 h" result="0.166 GR"

For the compound CO[C@H]1C[C@@H]2CC[C@@H](C)[C@@](O)(O2)C(=O)C(=O)N2CCCC[C@H]2C(=O)O[C@H]([C@H](C)C[C@@H]2CC[C@@H](OCCO)[C@H](OC)C2)CC(=O)[C@H](C)/C=C(\C)[C@@H](O)[C@@H](OC)C(=O)[C@H](C)C[C@H](C)/C=C/C=C/C=C/1C [Everolimus] (max 10 µM) , report GRmax, 72 h.
0.305 GR

====

- Tested on: HCC1143
- Method: GRmax, 72 h; higher = less effect
Listed here: items and their measured GRmax, 72 h.
Response body: numeric value in GR, unit text excluded.

For the compound CN(C)C/C=C/C(=O)Nc1ccc(C(=O)N2CCC[C@@H](Nc3ncc(Cl)c(-c4c[nH]c5ccccc45)n3)C2)cc1 [THZ531] (max 1 µM) , report GRmax, 72 h.
-0.23

For the compound CO[C@@H](C)Cn1c(=O)n(C)c2cnc3ccc(-c4cncc(C(C)(C)O)c4)cc3c21 (max 10 µM) , report GRmax, 72 h.
-0.203

For the compound CC(=O)O[C@H]1C(=O)[C@@]2(C)[C@H]([C@H](OC(=O)c3ccccc3)[C@]3(O)C[C@H](OC(=O)[C@H](O)[C@@H](NC(=O)c4ccccc4)c4ccccc4)C(C)=C1C3(C)C)[C@]1(OC(C)=O)CO[C@@H]1C[C@@H]2O [Paclitaxel] (max 1 µM) , report GRmax, 72 h.
-0.335

For the compound Cc1nc(-c2cn3c(n2)-c2ccc(-c4cnn(C(C)(C)C(N)=O)c4)cc2OCC3)n(C(C)C)n1 [Taselisib/GDC0032] (max 10 µM) , report GRmax, 72 h.
-0.0942

For the compound O=C(CCCCCCC(=O)Nc1ccccc1)NO [Vorinostat] (max 10 µM) , report GRmax, 72 h.
-0.253

For the compound CN(C)C/C=C/C(=O)Nc1ccc(C(=O)Nc2cccc(Nc3ncc(Cl)c(-c4c[nH]c5ccccc45)n3)c2)cc1 [THZ1] (max 1 µM) , report GRmax, 72 h.
-0.318

For the compound CC[C@@]1(O)C(=O)OCc2c1cc1n(c2=O)Cc2cc3c(CN(C)C)c(O)ccc3nc2-1 [Topotecan] (max 10 µM) , report GRmax, 72 h.
-0.43

For the compound CC(C)Nc1cc(-c2c[nH]c(C(=O)N[C@H](CO)c3cccc(Cl)c3)c2)c(Cl)cn1 [BVD523] (max 10 µM) , report GRmax, 72 h.
0.0829

For the compound CNc1nc(-c2ccc3c(N)n[nH]c3c2)cc(N2C[C@@H](C(=O)NC3CCCCC3)CC[C@H]2C)n1 (max 10 µM) , report GRmax, 72 h.
0.742

For the compound CC(=O)c1c(C)c2cnc(Nc3ccc(N4CCNCC4)cn3)nc2n(C2CCCC2)c1=O (max 3.162 µM) , report GRmax, 72 h.
0.282

For the compound CC(=O)c1c(C)c2cnc(Nc3ccc(N4CCN(CCOCCOCCOCCNC(=O)COc5cccc6c5C(=O)N(C5CCC(=O)NC5=O)C6=O)CC4)cn3)nc2n(C2CCCC2)c1=O (stereo not drawn) [BSJ-03-123] (max 10 µM) , report GRmax, 72 h.
-0.0159

For the compound COc1ccc2c(c1)[C@]1(C[C@H]1c1ccc3c(/C=C/c4ccc(CN5C[C@@H](C)O[C@@H](C)C5)cc4)n[nH]c3c1)C(=O)N2 , report GRmax, 72 h.
0.0518

For the compound Nc1cc(C(F)(F)F)c(-c2cc(N3CCOCC3)nc(N3CCOCC3)n2)cn1 [Buparlisib/NVP-BKM120] (max 10 µM) , report GRmax, 72 h.
-0.436

====

- Test system: HCC1569
- Method: GRmax, 72 h; higher = less effect;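 further: breast cell lines in 384-well plates, nine doses across a 10^4 range, Dye Drop imaging of viable cells vs DMSO and time-zero plates, GR 0 means no net growth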
Quantity Name: GRmax, 72 h (GR)
Response body: numeric value in GR, unit text excluded.

compound="CN(C)C/C=C/C(=O)Nc1ccc(C(=O)Nc2cccc(Nc3cc(-c4c[nH]c5ccccc45)ncn3)c2)cc1 [THZ-P1-2] (max 10 µM)" numeric_readout=-0.359
compound="CO[C@H]1C[C@@H]2CC[C@@H](C)[C@@](O)(O2)C(=O)C(=O)N2CCCC[C@H]2C(=O)O[C@H]([C@H](C)C[C@@H]2CC[C@@H](OCCO)[C@H](OC)C2)CC(=O)[C@H](C)/C=C(\\C)[C@@H](O)[C@@H](OC)C(=O)[C@H](C)C[C@H](C)/C=C/C=C/C=C/1C [Everolimus] (max 10 µM)" numeric_readout=0.555
compound="NC(=O)Nc1cc(-c2cccc(F)c2)sc1C(=O)N[C@H]1CCCNC1 [AZD7762] (max 10 µM)" numeric_readout=-0.411
compound="CN(C)C/C=C/C(=O)Nc1ccc(O[C@@H]2CCC[C@@H](Nc3ncc(Cl)c(-c4c[nH]c5ccccc45)n3)C2)cc1 [BSJ-01-175] (max 10 µM)" numeric_readout=-0.762

Consider now this further compound.
For the compound NC1(C(=O)N[C@@H](CCO)c2ccc(Cl)cc2)CCN(c2nc[nH]c3nccc2-3)CC1 [AZD5363] (max 10 µM) , report GRmax, 72 h.
0.0764
